Reference source for all entries: patent US20110124888A1

# RUN_DESCRIPTION: Passage test through the blood-brain barrier in mice (brain tissue)
# Type: in vivo, ICR mice
# CONDITION_LABEL: ICR, mouse, brain; mice, 2.5 mg/kg, po; read-out: AUCBrain/AUC Plasma
MEASURED_PROPERTY: Kp

> print(dat)
                            cpd.smiles  measured
1     CNc1ccc(C=Cc2cc3cc(OC)ccc3o2)cc1       7.2
2  COc1ccc2cc(C=Cc3ccc(N(C)C)cc3)oc2c1      12.6

====

# RUN_DESCRIPTION: Passage test through the blood-brain barrier in rats (brain tissue)
# Format: in vivo, SD rats
# CONDITION_LABEL: SD, rat, brain, 2.5 mg/kg, po, read-out: AUCBrain/AUC Plasma
MEASURED_PROPERTY: Kp

> print(dat)
                            cpd.smiles  measured
1  COc1ccc2cc(C=Cc3ccc(N(C)C)cc3)oc2c1      16.8
2     CNc1ccc(C=Cc2cc3cc(OC)ccc3o2)cc1      21.8
